TARGET_OF_ASSAY: Avi-KRAS G12V (2-169) GTP/RAF1 RBD-3xFLAG (51-131) (Homo sapiens, UniProt P01116, G12V)
Construct: Avi-KRAS G12V (2-169)
Sequence (P01116 2-169 isoform P01116-2 G12V): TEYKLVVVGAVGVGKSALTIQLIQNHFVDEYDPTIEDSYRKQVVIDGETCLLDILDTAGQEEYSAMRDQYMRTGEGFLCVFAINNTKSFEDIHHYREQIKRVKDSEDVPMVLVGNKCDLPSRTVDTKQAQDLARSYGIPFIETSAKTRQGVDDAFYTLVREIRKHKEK
METHOD_DESCRIPTION: Raf1-KRAS G12V-GTP disruption HTRF assay (Biological Example 3)
Type: binding
TEST_CONDITIONS: KRAS G12V, GTP-loaded
Description: Biological Example 3: Disrupting RAS-Effector Binding HTRF Assay A protein:protein interaction (PPI) Homogeneous Time Resolved Fluorescence (HTRF) assay was used to determine the effectiveness of compounds in disrupting KRAS protein and effector (RAF1) binding. […] Plates were analyzed on an Envision plate reader using the following setting: Excitation 320 nm, Bandwidth 75 nm; Emission 615 nm, Bandwidth 85 nm; Gain 100%; Flashes 100; Lag 60 μs. […] Data was plotted and analyzed using Prism 8. […]
READOUT_TYPE: IC50

Answered cases to consult:
# COMPOUND, READOUT_TYPE, VALUE_REPORTED
data = [
    ("CCN(c1nc(OC[C@]23CCCN2C[C@H](F)C3)nc2c(F)c(-c3ccc(F)c4sc(N)c(C#N)c34)c(C(F)(F)F)cc12)[C@H]1CCN(C(=O)C(C)C)C1", "IC50", "100 to 1000 nM"),
    ("CCN(c1nc(OC[C@@]23CCCN2C[C@H](F)C3)nc2c(F)c(-c3ccc(F)c4sc(N)c(C#N)c34)c(C(F)(F)F)cc12)[C@@H]1CCN(C(=O)C2CC2)C1", "IC50", "100 to 1000 nM"),
    ("[2H][C@]1(N(CC)c2nc(OC[C@@]34CCCN3C[C@H](F)C4)nc3c(F)c(-c4ccc(F)c5sc(N)c(C#N)c45)c(C(F)(F)F)cc23)CCN(C(=O)C(C)C)C1 (atropisomer, axis not shown)", "IC50", "100 to 1000 nM"),
    ("CCN(c1nc(OC[C@@]23CCCN2C[C@H](F)C3)nc2c(F)c(-c3ccc(F)c4sc(N)c(C#N)c34)c(C(F)(F)F)cc12)[C@H]1C[C@H](C)N(C(=O)[C@@H]2C[C@@H]2F)C1 (atropisomer, axis not shown)", "IC50", "100 to 1000 nM"),
    ("CCN(c1nc(OC[C@@]23CCCN2C[C@H](F)C3)nc2c(F)c(-c3ccc(F)c4sc(N)c(C#N)c34)c(C(F)(F)F)cc12)[C@@H]1CCN2C(=O)OC[C@H]12 (atropisomer, axis not shown)", "IC50", "> 10000 nM"),
    ("CCN(c1nc(OC[C@@]23CCCN2C[C@H](F)C3)nc2c(F)c(-c3ccc(F)c4sc(N)c(C#N)c34)c(C(F)(F)F)cc12)[C@H]1C[C@H](C)N(C(=O)C2COC2)C1 (atropisomer, axis not shown)", "IC50", "100 to 1000 nM"),
    ("CCN(c1nc(OC[C@@]23CCCN2C[C@H](F)C3)nc2c(F)c(-c3ccc(F)c4sc(N)c(C#N)c34)c(C(F)(F)F)cc12)[C@H]1CCN(C(=O)O[C@@H]2CO[C@H]3OCC[C@H]32)C1 (atropisomer, axis not shown)", "IC50", "≤ 100 nM"),
    ("CN(c1nc(OC[C@@]23CCCN2C[C@H](F)C3)nc2c(F)c(-c3ccc(F)c4sc(N)c(C#N)c34)c(C(F)(F)F)cc12)[C@H]1CC(=O)N2CCC[C@@H]12 (atropisomer, axis not shown)", "IC50", "100 to 1000 nM"),
    ("CCN(c1nc(OC[C@@]23CCCN2C[C@H](F)C3)nc2c(F)c(-c3ccc(F)c4sc(N)c(C#N)c34)c(C(F)(F)F)cc12)[C@@H]1CCN(C(=O)C2CC2)[C@@H]1C (atropisomer, axis not shown)", "IC50", "≤ 100 nM"),
    ("N#Cc1c(N)sc2c(F)ccc(-c3c(C(F)(F)F)cc4c(N(CCF)[C@H]5CCN(C(=O)[C@@H]6CC6(F)F)C5)nc(OC[C@@]56CCCN5C[C@H](F)C6)nc4c3F)c12 (atropisomer, axis not shown)", "IC50", "100 to 1000 nM"),
]

Q: Given the compound CCN(c1nc(OC[C@@]23CCCN2C[C@H](F)C3)nc2c(F)c(-c3ccc(F)c4sc(N)c(C#N)c34)c(C(F)(F)F)cc12)[C@H]1CCN(C(=O)OCC2COC2)[C@@H]1C (atropisomer, axis not shown) , what is its reported IC50?
Result: 100 to 1000 nM

Q: Fill in: IC50 of CCN(c1nc(OC[C@@]23CCCN2C[C@H](F)C3)nc2c(F)c(-c3ccc(F)c4sc(N)c(C#N)c34)c(C(F)(F)F)cc12)[C@H]1C[C@@H]2COC(=O)N2C1 (atropisomer, axis not shown) is ___
Result: 100 to 1000 nM
